Cited source: patent EP4741383A1

System Name: SHP2 enzyme (catalytic domain, amino acid sequence 224-528) (Homo sapiens, UniProt Q06124)
Construct: purchased GenScript
Sequence (Q06124 224-528): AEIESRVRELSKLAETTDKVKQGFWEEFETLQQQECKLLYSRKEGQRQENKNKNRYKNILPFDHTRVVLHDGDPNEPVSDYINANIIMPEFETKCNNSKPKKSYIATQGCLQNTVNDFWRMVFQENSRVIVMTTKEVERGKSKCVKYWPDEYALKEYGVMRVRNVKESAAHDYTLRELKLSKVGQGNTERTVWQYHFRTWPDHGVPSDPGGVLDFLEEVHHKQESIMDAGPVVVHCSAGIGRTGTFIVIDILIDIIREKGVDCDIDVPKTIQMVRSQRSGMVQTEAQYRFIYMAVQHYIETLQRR
Method Notes: SHP2 enzyme inhibition assay (DiFMUP substrate, fluorescence)
Format: biochemical
Value Kind: IC50 (nM)
Number in nM, nothing else.

[Q] Quick one: IC50 for O=C(Nc1ccc(-c2cc3cc(F)c(-c4nnn[nH]4)cc3n2C2CCC2)cc1)C(=O)Nc1ccc(N2CC(CCO)C2)cc1 ?
[A] 87

---

Reported IC50PTP/IC50SHP2 Laforin values are given for each entry in this list.
System Name: Laforin (Homo sapiens, UniProt O95278)
Construct: made in house; host or cells: E. coli
Sequence (O95278 whole entry, species assumed): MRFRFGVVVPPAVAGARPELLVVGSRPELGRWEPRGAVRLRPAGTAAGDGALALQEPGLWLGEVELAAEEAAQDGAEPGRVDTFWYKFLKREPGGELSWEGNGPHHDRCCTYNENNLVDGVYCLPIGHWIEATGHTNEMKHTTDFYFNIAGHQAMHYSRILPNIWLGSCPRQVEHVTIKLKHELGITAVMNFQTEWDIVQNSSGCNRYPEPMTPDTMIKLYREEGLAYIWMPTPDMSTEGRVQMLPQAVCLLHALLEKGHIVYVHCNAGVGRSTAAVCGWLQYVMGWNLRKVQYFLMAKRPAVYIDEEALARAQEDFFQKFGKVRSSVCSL
Method Notes: Tyrosine phosphatase selectivity (pNPP substrate), Laforin
Assay type: biochemical
Conditions: selectivity ratio Laforin over SHP2
Give the figure by itself; no unit, no explanation.

>  <Compound>
O=C(Nc1ccc(-c2ccsc2)cc1)C(=O)Nc1ccc(-c2oc3cc(F)c(-c4nnn[nH]4)cc3c2C2CCC2)cc1

>  <IC50PTP/IC50SHP2 Laforin>
800

$$$$
>  <Compound>
O=C(Nc1ccc(-c2cc3cc(F)c(-c4nnn[nH]4)cc3n2C2CCC2)cc1)C(=O)Nc1ccc(N2CCOCC2)cc1

>  <IC50PTP/IC50SHP2 Laforin>
9.6

$$$$
>  <Compound>
CC1(n2c(-c3ccc(NC(=O)C(=O)Nc4ccc(N5CCC6(CCOC6)CC5)cc4)cc3)cc3cc(F)c(-c4nnn[nH]4)cc32)CCC1

>  <IC50PTP/IC50SHP2 Laforin>
520.8

$$$$
>  <Compound>
O=C(Nc1ccc(-c2cc3cc(F)c(-c4nnn[nH]4)cc3n2C2CCC2)cc1)C(=O)Nc1ccc(N2CCC3(CCOC3)CC2)cc1

>  <IC50PTP/IC50SHP2 Laforin>
182

$$$$
>  <Compound>
O=C(Nc1ccc(-c2ccsc2)cc1)C(=O)Nc1ccc(-c2cc3cc(F)c(-c4nnn[nH]4)cc3n2C2CCC2)cc1

>  <IC50PTP/IC50SHP2 Laforin>
689.7

$$$$

[Q] Quick one: IC50PTP/IC50SHP2 Laforin for Cn1cc(-c2ccc(NC(=O)C(=O)Nc3ccc(-c4cc5cc(F)c(-c6noc(=O)[nH]6)cc5n4C4CCC4)cc3)cc2)cn1 ?
[A] 709.2

[Q] Subsequent entry: O=C(Nc1ccc(-c2oc3cc(F)c(-c4nnn[nH]4)cc3c2C2CCC2)cc1)C(=O)Nc1ccc(N2CCC3(CCOC3)CC2)cc1
[A] 1960.8

[Q] Subsequent entry: Cn1c(-c2cccc(NC(=O)C(=O)Nc3ccc(-c4ccsc4)cc3)c2)c(I)c2cc(C(=O)O)c(O)cc21 [Example 11a-1, reference compound]
[A] 112

[Q] Subsequent entry: O=C(Nc1ccc(-c2ccsc2)cc1)C(=O)Nc1ccc(-c2cc3cc(F)c(-c4nnn[nH]4)nc3n2C2CCC2)cc1
[A] 740.7

[Q] Subsequent entry: O=C(Nc1ccc(-c2ccsc2)cc1)C(=O)Nc1ccc(-c2cc3cnc(-c4nnn[nH]4)nc3n2C2CCC2)cc1
[A] 769.2

[Q] Subsequent entry: O=C(Nc1ccc(-c2ccsc2)cc1)C(=O)Nc1ccc(-c2cc3ccc(-c4nnn[nH]4)nc3n2C2CCC2)cc1
[A] 339.0

[Q] Subsequent entry: O=C(Nc1ccc(-c2cc3cc(F)c(-c4nnn[nH]4)cc3n2C2CCC2)cc1)C(=O)Nc1ccc(N2CC3COCC3C2)cc1 (stereo not shown)
[A] 33.8

[Q] Subsequent entry: Cn1cc(-c2ccc(NC(=O)C(=O)Nc3ccc(-c4cc5cc(F)c(-c6nnc(C(F)(F)F)[nH]6)cc5n4C4CCC4)cc3)cc2)cn1
[A] 139.7
